Tested On: UNC-49B/C heteromeric GABA receptor (Caenorhabditis elegans, UniProt G5EE10+G5EEY3)
Sequence (G5EE10 entry or part of it): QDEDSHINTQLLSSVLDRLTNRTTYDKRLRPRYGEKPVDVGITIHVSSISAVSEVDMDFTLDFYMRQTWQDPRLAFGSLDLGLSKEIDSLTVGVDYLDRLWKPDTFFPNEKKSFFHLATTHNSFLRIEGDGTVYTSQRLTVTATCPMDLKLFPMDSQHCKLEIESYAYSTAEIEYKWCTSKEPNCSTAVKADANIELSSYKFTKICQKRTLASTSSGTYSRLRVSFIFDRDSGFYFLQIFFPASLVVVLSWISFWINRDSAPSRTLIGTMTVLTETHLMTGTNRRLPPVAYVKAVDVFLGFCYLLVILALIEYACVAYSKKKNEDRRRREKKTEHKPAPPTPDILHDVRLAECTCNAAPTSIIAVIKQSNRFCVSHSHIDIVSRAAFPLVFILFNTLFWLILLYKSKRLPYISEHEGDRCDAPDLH
Sequence (G5EEY3 entry or part of it): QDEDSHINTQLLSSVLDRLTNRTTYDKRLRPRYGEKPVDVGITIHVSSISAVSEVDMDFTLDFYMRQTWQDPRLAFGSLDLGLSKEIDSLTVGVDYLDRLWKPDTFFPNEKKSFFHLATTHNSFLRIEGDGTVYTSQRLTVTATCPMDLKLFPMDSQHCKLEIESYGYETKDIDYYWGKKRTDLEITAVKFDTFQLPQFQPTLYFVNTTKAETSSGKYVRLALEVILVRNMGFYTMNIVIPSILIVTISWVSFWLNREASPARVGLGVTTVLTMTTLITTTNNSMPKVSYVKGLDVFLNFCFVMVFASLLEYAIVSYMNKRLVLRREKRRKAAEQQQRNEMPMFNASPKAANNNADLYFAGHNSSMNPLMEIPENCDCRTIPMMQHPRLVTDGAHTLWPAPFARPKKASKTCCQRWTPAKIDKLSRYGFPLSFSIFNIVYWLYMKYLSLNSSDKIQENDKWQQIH
Assay: Two-electrode voltage clamp of Xenopus oocytes injected with equal amounts of UNC-49B and UNC-49C RNA
Condition Label: Xenopus oocytes co-expressing UNC-49B and UNC-49C
Quantity: pEC50
// pEC50 is dimensionless: -log10 of concentration (M)

Fill in the recorded pEC50 for this molecule, with UNC-49B/C heteromeric GABA receptor (Caenorhabditis elegans, UniProt G5EE10+G5EEY3) as test system: NCCCC(=O)O [GABA, gamma-aminobutyric acid]
3.97

###

Tested On: UNC-49B homomeric GABA receptor (Caenorhabditis elegans, UniProt G5EEY3)
Sequence (G5EEY3 entry or part of it): as above
Assay: Two-electrode voltage clamp of Xenopus oocytes injected with UNC-49B.1 mRNA
Condition Label: UNC-49B.1-injected Xenopus oocytes, holding potential -60 mV, representative experiment; read-out: GABA concentration required to produce half-maximal channel activity (EC50)
Description: Oocytes were removed from Xenopus laevis frogs anesthetized by immersion in 0.2% tricaine for 15-30 minutes. […] Electrophysiological recordings were performed 3-7 days following injection and were carried out at room temperature in a control Ringers solution containing in mM: 115 NaCl, 2.5 KCl, 1.0 BaCL2, and 10 HEPES (pH=7.4). […] Single channel conductance was determined by fitting Gaussian curves to all points histograms.
Quantity: pEC50
// pEC50 is dimensionless: -log10 of concentration (M)

Which measured pEC50 value corresponds to NCCCC(=O)O ?
4.36
